Source: ChEMBL document CHEMBL3045528

Assay: Toxicity in Oncorhynchus mykiss (rainbow trout)
Format: organism-based
Settings: in vivo
Measurement kind: LC50

Recorded result, Cc1ccc(-c2c(Cl)nc(C#N)n2S(=O)(=O)N(C)C)cc1 , LC50: > 100 µg/mL

* * *

Assay: Toxicity in Cyprinidae (carp fish)
Type: ADME, organism-based
Conditions: in vivo
Measurement kind: LC50

Recorded result, Cc1ccc(-c2c(Cl)nc(C#N)n2S(=O)(=O)N(C)C)cc1 [Cyazofamid] , LC50: > 69.6 µg/mL

* * *

Assay: Acute toxicity in Pheretima sieboldi
Format: organism-based
Details: metaphire sieboldi, in vivo
Measurement kind: NOAEL

Recorded result, Cc1ccc(-c2c(Cl)nc(C#N)n2S(=O)(=O)N(C)C)cc1 [Cyazofamid] , NOAEL: > 1000 mg/kg

* * *

Assay: Acute toxicity in po dosed Rattus norvegicus (rat)
Type: organism-based
Conditions: in vivo
Measurement kind: LD50

Recorded result, Cc1ccc(-c2c(Cl)nc(C#N)n2S(=O)(=O)N(C)C)cc1 , LD50: > 5000 mg/kg

* * *

Test: Acute toxicity in po dosed Mus musculus (mouse)
Format: organism-based
Settings: in vivo
Measurement kind: LD50

Recorded result, Cc1ccc(-c2c(Cl)nc(C#N)n2S(=O)(=O)N(C)C)cc1 , LD50: > 5000 mg/kg

* * *

Assay: Acute toxicity in […] dosed Rattus norvegicus (rat)
Type: organism-based
Conditions: in vivo
Measurement kind: LD50

Recorded result, Cc1ccc(-c2c(Cl)nc(C#N)n2S(=O)(=O)N(C)C)cc1 , LD50: > 2000 mg/kg
